Reference source: patent US20230183319A1

Target: Q98L
Experiment: SPR; 25C
ENDPOINT: Kd (nM)
Your answer is read as nM, so omit the unit and give the number.

Examples from the recorded data:
- GDF11 (ligand) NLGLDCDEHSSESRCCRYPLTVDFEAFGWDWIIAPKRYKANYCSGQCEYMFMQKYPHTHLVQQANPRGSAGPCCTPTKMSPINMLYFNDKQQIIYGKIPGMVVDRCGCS: 0.043
- Activin A (ligand) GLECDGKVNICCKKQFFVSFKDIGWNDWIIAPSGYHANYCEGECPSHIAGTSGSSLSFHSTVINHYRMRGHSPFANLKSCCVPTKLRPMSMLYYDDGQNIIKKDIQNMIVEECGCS: 0.22
- BMP10 (ligand) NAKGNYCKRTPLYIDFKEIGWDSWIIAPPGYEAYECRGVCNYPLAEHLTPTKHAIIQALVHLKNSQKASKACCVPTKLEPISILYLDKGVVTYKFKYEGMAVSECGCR: 0.065

Alright, here's another binder for you.
Kd recorded for this binder, BMP9 (ligand) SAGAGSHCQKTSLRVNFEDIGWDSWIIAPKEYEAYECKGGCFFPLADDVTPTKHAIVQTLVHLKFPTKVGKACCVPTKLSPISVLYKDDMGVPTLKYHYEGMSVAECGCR , is 0.071
